B1: NF2 (merlin) isoform 7, human, full length (507 aa, lacks exons 2-3 = isoform-1 residues 39-121; exon-16 C-terminus), P35240-4 (parent)
chain: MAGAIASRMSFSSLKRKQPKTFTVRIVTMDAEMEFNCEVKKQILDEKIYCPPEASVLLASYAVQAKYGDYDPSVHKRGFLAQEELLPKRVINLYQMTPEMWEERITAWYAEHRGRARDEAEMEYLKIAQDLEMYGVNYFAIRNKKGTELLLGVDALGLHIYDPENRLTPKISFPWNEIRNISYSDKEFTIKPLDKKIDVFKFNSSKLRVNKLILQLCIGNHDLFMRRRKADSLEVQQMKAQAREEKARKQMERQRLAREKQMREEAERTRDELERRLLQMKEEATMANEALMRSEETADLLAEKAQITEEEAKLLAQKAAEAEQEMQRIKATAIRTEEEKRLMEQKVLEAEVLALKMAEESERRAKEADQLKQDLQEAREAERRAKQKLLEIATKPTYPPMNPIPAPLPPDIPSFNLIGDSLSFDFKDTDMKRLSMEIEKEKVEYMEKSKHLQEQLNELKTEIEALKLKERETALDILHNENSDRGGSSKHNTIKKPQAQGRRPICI

Variants of: B1
assay.notes: reverse yeast two-hybrid deep mutational scan (rY2H-seq): NF2 isoform 7 mutant library as bait mated with wild-type prey strains; selection on medium lacking adenine for non-interacting pairs; NextSeq paired-end sequencing; enrichment vs …
test.parameters: with NF2 C-terminal domain (wild type; homomeric NF2-NF2 interaction), P35240; yeast diploids after mating (RBait_S3 x RPrey_S3), 30 °C, selection for reporter genes on NB agar; human ABL2 co-expressed as the kinase-dead K35M mutant …; HIGHER = WEAKER BINDING (the opposite of display enrichments): higher = stronger loss of interaction: reverse Y2H selects yeast in which bait and prey do NOT interact (growth without adenine), so a …; hits-only table; partner unresolved; scale: rY2H score; numbering: uniprot, sequence starts at 1
recorded.endpoint: enrichment
Output: the number by itself.

Fill blank: measured enrichment of the variant `G486K` is ____.
5.67

Fill blank: measured enrichment of the variant `H159A` is ____.
2.04

Fill blank: measured enrichment of the variant `R263E` is ____.
3.74

Fill blank: measured enrichment of the variant `K313L` is ____.
2.4

Fill blank: measured enrichment of the variant `N482A` is ____.
3.43

Fill blank: measured enrichment of the variant `L408C` is ____.
1.37

Fill blank: measured enrichment of the variant `L315R` is ____.
1.62

Fill blank: measured enrichment of the variant `R113G` is ____.
1.5

Fill blank: measured enrichment of the variant `L348E` is ____.
1.71

Fill blank: measured enrichment of the variant `A499G` is ____.
1.7

Fill blank: measured enrichment of the variant `T394L` is ____.
9

Fill blank: measured enrichment of the variant `R379E` is ____.
1.99

Fill blank: measured enrichment of the variant `L158A` is ____.
1.57

Fill blank: measured enrichment of the variant `S488R` is ____.
1.58

Fill blank: measured enrichment of the variant `L167K` is ____.
1.57

Fill blank: measured enrichment of the variant `A59L` is ____.
7.54

Fill blank: measured enrichment of the variant `D411L` is ____.
3.15

Fill blank: measured enrichment of the variant `T269E` is ____.
3.61

Fill blank: measured enrichment of the variant `L301A` is ____.
1.81

Fill blank: measured enrichment of the variant `D374T` is ____.
3.23

Fill blank: measured enrichment of the variant `Y61A` is ____.
6.2

Fill blank: measured enrichment of the variant `E310L` is ____.
1.51
